- Test Description: in vitro
- Condition Info: pig, pH 6
Property Name: Papp at 90 min, 10 mg/mL
Write the numeric value and append its unit.

Sample CNC[C@H](O)c1ccc(O)c(O)c1 [Epi, Epinephrine] ; Papp at 90 min, 10 mg/mL observed: 667 ×10⁻⁶ cm/s

* * *

- Test Description: in vitro
- Condition Info: male, human, human saliva
Property Name: recovery at 6 min, 5 mg/mL (%)
Numbers only, in %.

Sample CNC[C@H](O)c1ccc(O)c(O)c1 [Epi, Epinephrine] ; recovery at 6 min, 5 mg/mL observed: 95

* * *

- Test Description: in vitro
- Condition Info: male, human, human saliva
Property Name: recovery at 10 min, 5 mg/mL

Sample CNC[C@H](O)c1ccc(O)c(O)c1 [Epi, Epinephrine] ; recovery at 10 min, 5 mg/mL observed: 95%
